# Test system: CAKI-1
# assayMethodText: NCI tumour cell line growth inhibition, 48 h
Activity calls are given as the source filed them. No stated cut-off is given here; in the data, active = GI50 up to about 1.1 µM and inactive = higher.
Answer with one of the outcomes given here: class 1 (active), class 0 (inactive)

>>> qualitativelabel("COC(=O)C1(C(=O)OC)CC2=C(S(=O)(=O)c3ccccc3)C[C@H](C#N)[C@H]2C1")
"class 0"

Task: Which result was noted for this compound in the test: COc1ccc(C(=O)NCCN(C)C)c2nc3ccccc3cc12
Result: class 1

Task: Which result was noted for this compound in the test: C[N+](C)(C)CC(=O)N/N=C(\C(=O)Nc1ccc(Cl)cc1)C1C(=O)N(c2ccccc2)N=C1N (stereo unspecified)
Result: class 0

Task: Which result was noted for this compound in the test: CCOC(=O)c1ccc(-c2cc(C)[nH]n2)[nH]1
Result: class 0

Task: Which result was noted for this compound in the test: Nc1ccc2ncc(NCc3ccc(F)cc3)nc2c1
Result: class 0

Task: Which result was noted for this compound in the test: COC(=N)C(C)C
Result: class 0
